Biological target: Inhibitor of nuclear factor kappa-B kinase subunit beta (Homo sapiens) (UniProt O14920);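 note: reported as mean inhibition, from the GSK PKIS screening set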
Sequence (whole entry): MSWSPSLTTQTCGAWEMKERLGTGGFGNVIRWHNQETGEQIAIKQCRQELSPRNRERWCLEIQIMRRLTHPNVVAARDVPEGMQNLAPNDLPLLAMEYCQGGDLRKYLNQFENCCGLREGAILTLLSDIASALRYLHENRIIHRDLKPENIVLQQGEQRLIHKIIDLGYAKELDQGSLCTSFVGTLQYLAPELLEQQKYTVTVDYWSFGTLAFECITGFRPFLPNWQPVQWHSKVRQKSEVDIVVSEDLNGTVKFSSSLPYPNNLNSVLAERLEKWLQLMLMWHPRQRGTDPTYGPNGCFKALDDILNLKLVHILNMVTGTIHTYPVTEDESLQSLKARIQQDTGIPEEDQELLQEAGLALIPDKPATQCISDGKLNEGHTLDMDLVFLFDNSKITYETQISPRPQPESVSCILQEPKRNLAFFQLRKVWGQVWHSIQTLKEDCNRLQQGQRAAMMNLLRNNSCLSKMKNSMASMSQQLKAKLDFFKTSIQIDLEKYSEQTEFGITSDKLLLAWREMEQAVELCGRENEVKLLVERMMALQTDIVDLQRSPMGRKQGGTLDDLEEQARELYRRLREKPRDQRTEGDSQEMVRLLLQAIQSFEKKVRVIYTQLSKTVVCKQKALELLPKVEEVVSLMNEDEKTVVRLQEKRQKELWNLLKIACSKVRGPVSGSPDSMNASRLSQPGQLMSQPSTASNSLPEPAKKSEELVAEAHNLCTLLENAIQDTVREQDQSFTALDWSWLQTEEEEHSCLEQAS
Conditions: at 1 µM
Entries and their inhibition values follow.

{"chemical-structure": "Nc1nc(-c2ccc(F)cc2)c(-c2ccc3ncccc3n2)s1", "system-under-test": "Inhibitor of nuclear factor kappa-B kinase subunit beta (Homo sapiens) (UniProt O14920)", "inhibition (%)": 4.99}
{"chemical-structure": "CCNC(=O)O[C@H]1CN[C@H](C#Cc2cc3ncnc(Nc4ccc(OCc5cccc(F)c5)c(Cl)c4)c3s2)C1", "system-under-test": "Inhibitor of nuclear factor kappa-B kinase subunit beta (Homo sapiens) (UniProt O14920)", "inhibition (%)": 1.97}
{"chemical-structure": "c1ccc(-c2nc3n(c2-c2ccc4c(c2)OCO4)CCC3)nc1", "system-under-test": "Inhibitor of nuclear factor kappa-B kinase subunit beta (Homo sapiens) (UniProt O14920)", "inhibition (%)": -0.72}
{"chemical-structure": "NS(=O)(=O)c1ccc(Nc2ncc(-c3ccccc3)o2)cc1", "system-under-test": "Inhibitor of nuclear factor kappa-B kinase subunit beta (Homo sapiens) (UniProt O14920)", "inhibition (%)": 11.7}

---

target: cGMP-dependent protein kinase 1 (Homo sapiens) (UniProt Q13976); settings: at 1 µM;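 note: listed percent inhibition of PRKG1 is a mean value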
Sequence (Q13976 whole entry): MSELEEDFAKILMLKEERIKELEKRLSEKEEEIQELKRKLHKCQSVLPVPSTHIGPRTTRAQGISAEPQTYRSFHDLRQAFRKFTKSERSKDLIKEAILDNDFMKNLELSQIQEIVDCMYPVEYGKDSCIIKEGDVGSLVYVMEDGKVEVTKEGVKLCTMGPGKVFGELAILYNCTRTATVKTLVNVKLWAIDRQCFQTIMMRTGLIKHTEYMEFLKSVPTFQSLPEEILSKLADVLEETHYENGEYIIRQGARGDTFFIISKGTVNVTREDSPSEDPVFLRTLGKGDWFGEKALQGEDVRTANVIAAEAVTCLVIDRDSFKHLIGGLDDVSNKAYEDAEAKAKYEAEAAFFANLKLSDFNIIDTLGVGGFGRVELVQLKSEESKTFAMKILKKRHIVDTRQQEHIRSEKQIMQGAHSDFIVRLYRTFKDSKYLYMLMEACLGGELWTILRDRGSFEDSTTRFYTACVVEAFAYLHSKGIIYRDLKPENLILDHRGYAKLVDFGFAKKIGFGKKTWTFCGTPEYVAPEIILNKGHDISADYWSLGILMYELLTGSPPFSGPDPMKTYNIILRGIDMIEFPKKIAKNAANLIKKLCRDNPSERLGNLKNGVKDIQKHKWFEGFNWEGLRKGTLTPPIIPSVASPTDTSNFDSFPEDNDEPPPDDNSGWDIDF

{"chemical-structure": "c1cc(-c2cnn3nc(N4CCOCC4)ccc23)nc(NC2CC2)n1", "inhibition (%)": 6.68}
{"chemical-structure": "CCc1nn2ncccc2c1-c1ccnc(NC2CC2)n1", "inhibition (%)": 3.59}
{"chemical-structure": "CCn1c(-c2nonc2N)nc2ccccc21", "inhibition (%)": 30.9}
{"chemical-structure": "Cc1cccc(Nc2ncc(-c3ccccc3)o2)c1", "inhibition (%)": 11.3}
{"chemical-structure": "CC(C)(CO)CNC(=O)c1ccc2c(c1)/C(=N/Nc1ccc(S(N)(=O)=O)cc1)C(=O)N2", "inhibition (%)": 11.8}
{"chemical-structure": "Nc1nc(-c2cccc(Cl)c2)c(-c2ccc3ncccc3n2)s1", "inhibition (%)": 5.63}

---

Entries and their inhibition values follow.
Molecular target: Non-receptor tyrosine-protein kinase TNK1 (Homo sapiens);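 note: values are averaged percent inhibition of TNK1, compounds from the GSK published kinase inhibitor set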
Sequence (whole entry): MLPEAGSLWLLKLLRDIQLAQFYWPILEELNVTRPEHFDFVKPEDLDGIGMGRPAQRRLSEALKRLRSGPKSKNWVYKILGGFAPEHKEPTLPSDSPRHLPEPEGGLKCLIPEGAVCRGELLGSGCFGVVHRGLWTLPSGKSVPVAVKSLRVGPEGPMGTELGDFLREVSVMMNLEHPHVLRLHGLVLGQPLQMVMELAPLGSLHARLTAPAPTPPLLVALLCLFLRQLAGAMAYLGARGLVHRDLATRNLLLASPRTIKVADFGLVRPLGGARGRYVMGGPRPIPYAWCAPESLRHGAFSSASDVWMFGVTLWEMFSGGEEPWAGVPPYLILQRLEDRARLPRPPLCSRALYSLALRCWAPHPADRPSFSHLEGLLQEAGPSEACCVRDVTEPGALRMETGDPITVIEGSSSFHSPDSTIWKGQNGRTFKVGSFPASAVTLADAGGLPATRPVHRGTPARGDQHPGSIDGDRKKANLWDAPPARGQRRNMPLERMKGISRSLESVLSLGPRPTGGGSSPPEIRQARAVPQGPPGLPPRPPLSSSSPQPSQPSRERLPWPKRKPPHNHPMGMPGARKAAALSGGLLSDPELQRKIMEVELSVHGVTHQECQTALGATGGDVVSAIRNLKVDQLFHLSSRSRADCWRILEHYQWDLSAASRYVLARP
Conditions: at 1 µM

{"chemical-structure": "[O-][S+]1CCN(Cc2ccc(-c3ccc4ncnc(Nc5ccc(OCc6cccc(F)c6)c(Cl)c5)c4c3)o2)CC1", "inhibition (%)": 11.7}
{"chemical-structure": "Fc1ccc(-c2cc(-c3c[nH]nc3-c3ccccn3)ccn2)cc1", "inhibition (%)": 17.8}
{"chemical-structure": "COc1cc2c(cc1Nc1nc(Nc3ccsc3C(N)=O)c3cc[nH]c3n1)N(C(=O)CN(C)C)CCC2(C)C", "inhibition (%)": 89.3}
{"chemical-structure": "Nc1ncc(-c2cccc(S(N)(=O)=O)c2)c2scc(-c3ccc(F)c(Cl)c3)c12", "inhibition (%)": 36}
{"chemical-structure": "CC(C)(CO)CNC(=O)c1ccc2c(c1)/C(=N/Nc1ccc(S(N)(=O)=O)cc1)C(=O)N2", "inhibition (%)": 10.3}

---

target: Serine/threonine-protein kinase Chk2 (Homo sapiens); settings: at 1 µM;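 note: reported value is the mean inhibition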
quantity-name: inhibition

{"chemical-structure": "CN1CCC(n2cnc(-c3ccc(F)cc3)c2-c2ccnc(N)n2)CC1", "quantity-name": "inhibition", "endpoint-result": "9.16%"}
{"chemical-structure": "NS(=O)(=O)c1ccc(Nc2ncc(-c3ccccc3)o2)cc1", "quantity-name": "inhibition", "endpoint-result": "3.97%"}
{"chemical-structure": "N#Cc1c(NC(=O)CN2CCOCC2)sc2c1CCCC2", "quantity-name": "inhibition", "endpoint-result": "4.14%"}
{"chemical-structure": "CCN1CCC(CC(=O)Nc2n[nH]c3nnc(-c4cccc(F)c4F)cc23)CC1", "quantity-name": "inhibition", "endpoint-result": "0.24%"}
{"chemical-structure": "Cc1ccc2c(-c3ccnc(Nc4ccccc4)n3)c(-c3ccc(F)cc3)nn2n1", "quantity-name": "inhibition", "endpoint-result": "2.4%"}
{"chemical-structure": "CC(=O)NCc1cccc(C#Cc2cncnc2Nc2ccc(OCc3cccc(F)c3)c(Cl)c2)c1", "quantity-name": "inhibition", "endpoint-result": "-3.41%"}

---

Target: Aurora kinase C (Homo sapiens) (UniProt Q9UQB9);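 note: reported value is a mean inhibition of Aurora-C from the GSK PKIS screening panel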
Sequence (whole entry): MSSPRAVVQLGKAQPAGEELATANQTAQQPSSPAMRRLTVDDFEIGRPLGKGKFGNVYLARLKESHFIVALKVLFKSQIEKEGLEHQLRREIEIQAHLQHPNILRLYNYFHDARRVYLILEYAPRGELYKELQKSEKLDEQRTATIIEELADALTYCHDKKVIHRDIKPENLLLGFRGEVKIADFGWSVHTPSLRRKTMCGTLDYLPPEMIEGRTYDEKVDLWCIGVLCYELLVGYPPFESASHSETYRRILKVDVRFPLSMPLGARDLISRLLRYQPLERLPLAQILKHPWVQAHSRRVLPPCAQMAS
Conditions: at 1 µM
Assign Condition met whenever inhibition does not fall below 7%; assign Condition not met whenever it does.

{"chemical-structure": "Cc1cccc2c1NC(=O)/C2=N\\Nc1ccc(S(N)(=O)=O)cc1", "group": "Condition met"}
{"chemical-structure": "CCCN(CCS(C)(=O)=O)Cc1ccc(-c2ccc3ncnc(Nc4ccc(OCc5cccc(F)c5)c(Cl)c4)c3c2)o1", "group": "Condition not met"}
{"chemical-structure": "Nc1ncc(-c2cccc(S(N)(=O)=O)c2)c2scc(-c3ccc(F)c(Cl)c3)c12", "group": "Condition met"}
{"chemical-structure": "c1cc(-c2cnn3nc(N4CCOCC4)ccc23)nc(NC2CC2)n1", "group": "Condition met"}

---

target: Ephrin type-B receptor 4 (Homo sapiens) (UniProt P54760); conditions: at 1 µM;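 note: reported value is the mean percent inhibition of EPHB4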
Sequence (P54760 whole entry): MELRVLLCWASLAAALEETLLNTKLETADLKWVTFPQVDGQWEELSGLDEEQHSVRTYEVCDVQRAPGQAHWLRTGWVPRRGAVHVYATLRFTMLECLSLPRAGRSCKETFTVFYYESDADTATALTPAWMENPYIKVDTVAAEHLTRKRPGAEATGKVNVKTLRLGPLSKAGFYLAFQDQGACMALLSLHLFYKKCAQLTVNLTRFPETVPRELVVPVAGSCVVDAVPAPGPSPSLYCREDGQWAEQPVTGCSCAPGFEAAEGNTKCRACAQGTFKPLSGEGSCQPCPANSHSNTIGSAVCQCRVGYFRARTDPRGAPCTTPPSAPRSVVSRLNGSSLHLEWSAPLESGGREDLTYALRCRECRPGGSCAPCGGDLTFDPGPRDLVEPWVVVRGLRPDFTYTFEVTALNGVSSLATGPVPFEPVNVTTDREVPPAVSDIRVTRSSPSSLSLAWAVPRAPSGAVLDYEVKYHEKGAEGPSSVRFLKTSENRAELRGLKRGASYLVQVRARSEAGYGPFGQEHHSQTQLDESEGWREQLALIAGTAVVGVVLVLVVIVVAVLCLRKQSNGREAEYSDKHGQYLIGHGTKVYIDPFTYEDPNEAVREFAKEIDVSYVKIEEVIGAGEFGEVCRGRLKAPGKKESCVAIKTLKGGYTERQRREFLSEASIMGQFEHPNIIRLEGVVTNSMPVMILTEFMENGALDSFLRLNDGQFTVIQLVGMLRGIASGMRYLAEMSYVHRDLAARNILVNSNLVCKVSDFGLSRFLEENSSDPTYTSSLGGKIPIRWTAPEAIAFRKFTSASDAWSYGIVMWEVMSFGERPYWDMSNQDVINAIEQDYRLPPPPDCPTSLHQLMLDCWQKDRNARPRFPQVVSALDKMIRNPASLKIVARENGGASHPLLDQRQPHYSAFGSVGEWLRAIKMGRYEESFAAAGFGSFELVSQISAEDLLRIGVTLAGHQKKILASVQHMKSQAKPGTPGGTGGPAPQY

{"chemical-structure": "CN1CCC(n2cnc(-c3ccc(F)cc3)c2-c2ccnc(Nc3ccccc3)n2)CC1", "inhibition, %": 12.6}
{"chemical-structure": "CC(=O)Nc1cccc(C#Cc2cncnc2Nc2ccc(OCc3cccc(F)c3)c(Cl)c2)c1", "inhibition, %": 2.84}
{"chemical-structure": "COc1ccc2[nH]c3c4[nH]c5ccc(OC)cc5c4c4c(c3c2c1)C(=O)NC4=O", "inhibition, %": 4.21}
{"chemical-structure": "Cc1cccc2c1NC(=O)/C2=N\\Nc1ccc(S(N)(=O)=O)cc1", "inhibition, %": 2.09}
{"chemical-structure": "COc1ccc(-c2cc3c(N)ncnc3o2)cc1", "inhibition, %": 0.16}
{"chemical-structure": "COc1cc2c(cc1Nc1nc(Nc3ccsc3C(N)=O)c3cc[nH]c3n1)N(C(=O)CN(C)C)CCC2(C)C", "inhibition, %": 2.72}
{"chemical-structure": "CCn1cc(-c2ccnc3[nH]ccc23)c(-c2cccc(NC(=O)Nc3ccc(OCc4ccccc4)cc3)c2)n1", "inhibition, %": 3.47}
{"chemical-structure": "CC(C)COC(=O)c1ccc2c(c1)/C(=C/Nc1ccc(S(N)(=O)=O)cc1)C(=O)N2", "inhibition, %": 1.51}
{"chemical-structure": "c1ccc(COc2ccc(Nc3ncnc4ccc(-c5ccco5)cc34)cc2)cc1", "inhibition, %": 1.67}
